Target: Putative P2Y purinoceptor 10 (Homo sapiens, UniProt O00398)
Sequence (O00398 whole entry): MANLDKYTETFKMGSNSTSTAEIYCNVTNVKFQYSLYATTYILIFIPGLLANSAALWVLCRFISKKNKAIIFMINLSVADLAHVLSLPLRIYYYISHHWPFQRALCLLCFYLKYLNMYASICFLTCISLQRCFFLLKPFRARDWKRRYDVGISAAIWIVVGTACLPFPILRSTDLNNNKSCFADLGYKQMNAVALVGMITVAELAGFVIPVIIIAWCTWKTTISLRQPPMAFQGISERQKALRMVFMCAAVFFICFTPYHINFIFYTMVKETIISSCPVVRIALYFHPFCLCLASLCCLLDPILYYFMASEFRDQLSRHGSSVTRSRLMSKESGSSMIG
Experiment: Agonist activity at human LPS2/P2Y10 transfected in HEK293-A cells co-transfected with AP-TGFalpha assessed as AP-TGFalpha release by TGFalpha shedding assay
Format: functional, cell-based
Conditions: read-out: EC50
pEC50 by entry:
The scale used: pEC50 is minus the common logarithm of the concentration in molar units.

Illustrative cases are given below, each with its answer.
GET /values?readout=pEC50&item= N[C@@H](COP(=O)(O)OCCCOC(=O)CCc1ccccc1Oc1ccc(-c2cc(-c3ccccc3)cc(-c3ccccc3)c2)cc1)C(=O)O 8.21

Queued: N[C@@H](COP(=O)(O)OCCCOC(=O)CCc1ccccc1Oc1ccc(-c2ccc(-c3ccccc3)cc2)cc1)C(=O)O 8.10

Queued: N[C@@H](COP(=O)(O)OCCCOC(=O)CCc1ccccc1Oc1ccc(-c2ccccc2-c2ccccc2)cc1)C(=O)O 7.00

Further cases:
GET /values?readout=pEC50&item= N[C@@H](COP(=O)(O)OCCCOC(=O)CCc1ccccc1Oc1ccc(-c2cccc(-c3ccccc3)c2)cc1)C(=O)O 7.66

====

Molecular target: Putative P2Y purinoceptor 10 (Homo sapiens, UniProt O00398, A163F)
Sequence (O00398 whole entry A163F): as the sequence (O00398 whole entry) above, with A163F counted along it
Test: Agonist activity at N-terminal FLAG-tagged human LPS2/P2Y10 A163F mutant transfected in HEK293-A cells co-transfected with AP-TGFalpha assessed as AP-TGFalpha release by TGFalpha shedding assay
endpoint: EC50 (µM)
# value in µM; strip the unit string

Illustrative cases are given below, each with its answer.
GET /values?readout=EC50&item= N[C@@H](COP(=O)(O)OCCCOC(=O)CCc1ccccc1Oc1ccc(-c2ccccc2)cc1)C(=O)O 0.033

Queued: N[C@@H](COP(=O)(O)OCCCOC(=O)CCc1ccccc1Oc1ccccc1)C(=O)O 1.6

Queued: Cc1ccc(Oc2ccccc2CCC(=O)OCCCOP(=O)(O)OC[C@H](N)C(=O)O)cc1 0.35

Further cases:
GET /values?readout=EC50&item= N[C@@H](COP(=O)(O)OCCCOC(=O)CCc1ccccc1Oc1ccc(C23C[C@H]4C[C@@H](C2)C[C@@H](C3)C4)cc1)C(=O)O 0.39

Queued: CC(C)(C)c1ccc(Oc2ccccc2CCC(=O)OCCCOP(=O)(O)OC[C@H](N)C(=O)O)cc1 0.47

====

Tested on: Putative P2Y purinoceptor 10 (Homo sapiens), O00398 [A163F]
Sequence (O00398 whole entry A163F): as the sequence (O00398 whole entry) above, with A163F counted along it
Assay: Agonist activity at N-terminal FLAG-tagged human LPS2/P2Y10 A163F mutant transfected in HEK293-A cells co-transfected with AP-TGFalpha assessed as AP-TGFalpha release by TGFalpha shedding assay relative to LysoPS
Type: cell-based
Details: filed as agonist
Emax by entry:
# value in %; strip the unit string

Illustrative cases are given below, each with its answer.
Form: Entry = N[C@@H](COP(=O)(O)OCCCOC(=O)CCc1ccccc1Oc1ccccc1)C(=O)O | System = Putative P2Y purinoceptor 10 (Homo sapiens), O00398 [A163F] | Emax = ____ 104

Queued: N[C@@H](COP(=O)(O)OCCCOC(=O)CCc1ccccc1Oc1ccc(-c2ccccc2)cc1)C(=O)O 122

Queued: N[C@@H](COP(=O)(O)OCCCOC(=O)CCc1ccccc1Oc1ccc(C23C[C@H]4C[C@@H](C2)C[C@@H](C3)C4)cc1)C(=O)O 137

Queued: Cc1ccc(Oc2ccccc2CCC(=O)OCCCOP(=O)(O)OC[C@H](N)C(=O)O)cc1 92

Now examine the next entry.
Form: Entry = CC(C)(C)c1ccc(Oc2ccccc2CCC(=O)OCCCOP(=O)(O)OC[C@H](N)C(=O)O)cc1 | System = Putative P2Y purinoceptor 10 (Homo sapiens), O00398 [A163F] | Emax = ____ 113

Reference source for all entries: ChEMBL document CHEMBL5360551
